For each record, write down the corresponding EC50.
- System: Human Small Cell Lung Cancer H69
- procedure summary: Cell proliferation experiment (Alarm blue), H69
- Type: cell-based
- condition info: Homo sapiens, NCI-H69; H69 cells, 72 h culture; read-out: Anti cell proliferative activity EC50, H69
Write the answer as a number in nM, unit excluded.

Recorded EC50 for NC(=O)c1ccccc1Nc1nc(Nc2ccc(N3CCN(C(=O)N[C@H]4C[C@H](NCCC#Cc5ccc6c(c5)CN(C5CCC(=O)NC5=O)C6=O)C4)CC3)cc2)ncc1Cl (some centres unmarked) , please?
61.2

Recorded EC50 for NC(=O)c1ccccc1Nc1nc(Nc2ccc(N3CCN(C(=O)N[C@H]4CC[C@@H](NC5CN(CC#Cc6ccc7c(c6)CN(C6CCC(=O)NC6=O)C7=O)C5)CC4)CC3)cc2)ncc1Cl (some centres unmarked) , please?
454

* * *

- Tested on: Human Colon Cancer cells Colo205
- procedure summary: Cell proliferation experiment (Alarm blue), Colo205
- Assay type: cell-based
- condition info: Homo sapiens, COLO 205, 72 h, Colo205 cells, 72 h culture; read-out: Anti cell proliferative activity EC50, Colo205
For each record, write down the corresponding pEC50.
Please express pEC50 as -log10 of the molar concentration.

Param readout = pEC50; param system = Human Colon Cancer cells Colo205; param query = CNC(=O)c1ccccc1Nc1nc(Nc2ccc(N3CCN(C(=O)N[C@H]4C[C@@H](NCC#Cc5ccc6c(c5)CN(C5CCC(=O)NC5=O)C6=O)C4)CC3)cc2)ncc1Cl (stereo partly shown) [UB-181257] ; response: value
7.23

Param readout = pEC50; param system = Human Colon Cancer cells Colo205; param query = NC(=O)c1ccccc1Nc1nc(Nc2ccc(N3CCN(C(=O)N[C@H]4CC[C@@H](NC5CN(CC#Cc6ccc7c(c6)CN(C6CCC(=O)NC6=O)C7=O)C5)CC4)CC3)cc2)ncc1Cl (stereo partly shown) [UB-181270] ; response: value
6.66

Param readout = pEC50; param system = Human Colon Cancer cells Colo205; param query = CNC(=O)c1ccccc1Nc1nc(Nc2ccc(N3CCN(C(=O)N[C@H]4C[C@@H](NCCC#Cc5ccc6c(c5)CN(C5CCC(=O)NC5=O)C6=O)C4)CC3)cc2)ncc1Cl (stereo partly shown) [UB-181250] ; response: value
7.32

Param readout = pEC50; param system = Human Colon Cancer cells Colo205; param query = CNC(=O)c1ccccc1Nc1nc(Nc2ccc(N3CCC(NCC#Cc4ccc5c(c4)CN(C4CCC(=O)NC4=O)C5=O)CC3)cc2)ncc1Cl (stereo not shown) [UB-181269] ; response: value
7.97

Param readout = pEC50; param system = Human Colon Cancer cells Colo205; param query = NC(=O)c1ccccc1Nc1nc(Nc2ccc(C3CCN(C(=O)N[C@H]4C[C@@H](NCCC#Cc5ccc6c(c5)CN(C5CCC(=O)NC5=O)C6=O)C4)CC3)cc2)ncc1Cl (stereo partly shown) [UB-181279] ; response: value
7.19

Param readout = pEC50; param system = Human Colon Cancer cells Colo205; param query = NC(=O)c1ccccc1Nc1nc(Nc2ccc(N3CCN(C(=O)NC4CCN(CCNCCC#Cc5ccc6c(c5)CN(C5CCC(=O)NC5=O)C6=O)CC4)CC3)cc2)ncc1Cl (stereo not shown) [UB-181274] ; response: value
7.31

Param readout = pEC50; param system = Human Colon Cancer cells Colo205; param query = CNC(=O)c1ccccc1Nc1nc(Nc2ccc(N3CCN(C(=O)NC4CCN(CCNCCC#Cc5ccc6c(c5)CN(C5CCC(=O)NC5=O)C6=O)CC4)CC3)cc2)ncc1Cl (stereo not shown) [UB-181240] ; response: value
7.40

Param readout = pEC50; param system = Human Colon Cancer cells Colo205; param query = NC(=O)c1ccccc1Nc1nc(Nc2ccc(N3CCN(C(=O)N[C@H]4CC[C@@H](NC5CN(CCC#Cc6ccc7c(c6)CN(C6CCC(=O)NC6=O)C7=O)C5)CC4)CC3)cc2)ncc1Cl (stereo partly shown) [UB-181251] ; response: value
6.88

Param readout = pEC50; param system = Human Colon Cancer cells Colo205; param query = NC(=O)c1ccccc1Nc1nc(Nc2ccc(N3CCN(C(=O)N[C@H]4C[C@@H](NCC#Cc5ccc6c(c5)CN(C5CCC(=O)NC5=O)C6=O)C4)CC3)cc2)ncc1Cl (stereo partly shown) [UB-181258] ; response: value
7.42

Param readout = pEC50; param system = Human Colon Cancer cells Colo205; param query = CNC(=O)c1ccccc1Nc1nc(Nc2ccc(N3CCC(C(=O)N4CCC5(CC4)CC(NCCC#Cc4ccc6c(c4)CN(C4CCC(=O)NC4=O)C6=O)C5)CC3)cc2)ncc1Cl (stereo not shown) [UB-181249] ; response: value
7.28

# credit: patent US20250041306A1
